Biological target: T1, UNK ZnF1-3 (human, UniProt Q9C0B0 31-174)
T1 sequence: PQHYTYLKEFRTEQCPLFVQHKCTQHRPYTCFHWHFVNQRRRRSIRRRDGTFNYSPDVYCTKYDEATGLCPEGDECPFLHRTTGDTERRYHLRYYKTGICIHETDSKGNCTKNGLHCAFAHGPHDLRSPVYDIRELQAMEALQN
Test: nsRBNS (natural sequence RNA bind-n-seq); RBNS binding buffer (assumed for nsRBNS): 25 mM Tris pH 7.5, 150 mM KCl, 3 mM MgCl2, 0.01% Triton X-100, 500 ug/ml BSA, 20 U/ml SUPERase-In, 4 C; UNK is unkempt and MSI1 is Musashi-1; names of the RNAs are library labels; protein concentration not given here; high values mean tight binding
Over roughly 24,000 sequences, “enrichment r” has its median near 0.99; the highest 2% begin near 3.7. The sample as a whole holds a higher share of the highest values than the screen did.

- binder: "chr17:62500844:62500845:-_ENSG00000108654_ENST00000583239|hu_mus|motif|central (ssRNA) RNA: GGGAGUUCUACAGUCCGACGAUCUUGAUAAAAAUUCUUCUCAAAUUUGGGCAGCUCAUCAAGAUUCCACUUCUUUUUAACGGGUUUCUCCCCAGGAUUUCCAAACUUCUUUCCAGAGAGGGGUCCUGUUCUACUCCCUCCAAACAACAGAGGAUUGAGCAUCA"
  binding signal (enrichment R): 1.28
- binder: "chr13:55803104:55803105:+_ENSMUSG00000045767_ENSMUST00000057844|mus_hu|FALSE|FALSE (ssRNA) RNA: GGGAGUUCUACAGUCCGACGAUCGCACAGCACCAGUAAGUAGAUGUGCUGGAGGGUAGAGGAAGAGGAAUGAAUGUACGAAAGGCAGGGGAGAAAGGGAAGGGUAUGUAUAACAAAAUAAGGAAGGAAAAUAAACUGAAAGGGCAACAGAGGAUUGAGCAUCA"
  binding signal (enrichment R): 5.32
- binder: "chr2:49626764:49626765:+_ENSMUSG00000026764_ENSMUST00000028102|mus_hu|FALSE|FALSE (ssRNA) RNA: GGGAGUUCUACAGUCCGACGAUCGCACACAUCUGUACACACAGAAACUCUACACAGCUCAAAAGACCUGAAACUGGUGUACUGCAGAUGGCUGGAGUAAGCAAGUAUAAAAAAAAAAUGGAAACUGUAGGGGGGGAAAAAUAACAACAGAGGAUUGAGCAUCA"
  binding signal (enrichment R): 9.96
- binder: "chr6:89793807:89793808:+_ENSG00000146278_ENST00000336032|hu_mus|FALSE|FALSE (ssRNA) RNA: GGGAGUUCUACAGUCCGACGAUCACUUCCCAUCCAGUGACUCGGAGGCUUUGGGAGGACACUAGGGGAAGGUGGGUCACUGAACUUUGCUCCGGCGUAAUUUUCCUUUUGGCUCACUUCUGUUAGAAAUGCUGAUUUCUUCAACAACAGAGGAUUGAGCAUCA"
  binding signal (enrichment R): 0.744
- binder: "chr1:225611761:225611762:-_ENSG00000143815_ENST00000272163|hu_mus|hu_hu_hu_mus_True|18_78 (ssRNA) RNA: GGGAGUUCUACAGUCCGACGAUCCCAGGCCAUCGGCCUCUGACCACUUCACCCUCAGCAAAUUUCCUACUUGGCAUUUUCUAAAAUUAGUCUGGCCGCGCUCCGGCGGGAACUCCAGACGGCUCCCGACAGUCACCAGCAGCCCAACAGAGGAUUGAGCAUCA"
  binding signal (enrichment R): 1.27
- binder: "chr2:47387792:47387793:-_ENSG00000143933_ENST00000272298|hu_hu|motif|central (ssRNA) RNA: GGGAGUUCUACAGUCCGACGAUCUUAGGACAAUGACAGUAAGAUAAGGGAAGAAAACAUGGAGGAAUGAAGUCCGGAUUACGGUACAUGCAUAUUUUUUUGACAGUAGGGAGAAACCUUUUACAGAUAAGUUACAAACAAAGACAACAGAGGAUUGAGCAUCA"
  binding signal (enrichment R): 1.89
- binder: "chr1:58468927:58468928:-_ENSMUSG00000026034_ENSMUST00000148330|mus_mus|mus_mus_mus_hu_False|18_48 (ssRNA) RNA: GGGAGUUCUACAGUCCGACGAUCAAUUACUGAAAAAGAUGUUCAUUACCUUAGCUAUGUACUUAAUGAACCAAAUUACCCAAACAACAUAAAAUGUGCAAUAUAAAAAUGUUAAGAAAAUAACUUACUGUACAAAAUAACUUACAACAGAGGAUUGAGCAUCA"
  binding signal (enrichment R): 0.974
- binder: "chr2:115689366:115689367:-_ENSMUSG00000027210_ENSMUST00000074285|mus_mus|FALSE|FALSE (ssRNA) RNA: GGGAGUUCUACAGUCCGACGAUCUCUUUGAAGAACAGUCCCCCAAAAUCAUAAUAAGAAUUGGCUUAUGAAGCACAAACUAUAAAGAUCUGUUUGAAACUAAAGGACACAUGGACGGGGGGAACAAAGGCCGGGCAUGAAAACCAACAGAGGAUUGAGCAUCA"
  binding signal (enrichment R): 2.13
- binder: "chr11:93905761:93905762:+_ENSMUSG00000020859_ENSMUST00000103168|mus_mus|FALSE|FALSE (ssRNA) RNA: GGGAGUUCUACAGUCCGACGAUCCGCUGGCACCCCGGUAGAAAUAGAAAAGUGCACAAGCAGCAAAACAGAGAGAGAUACUAAGAUCGCAGAAUUAAUGACCACCGCCCCGCCAACAAAGCCAAACACAAACAGCAGCAUGCACAACAGAGGAUUGAGCAUCA"
  binding signal (enrichment R): 2.57
- binder: "chr7:141441981:141441982:+_ENSG00000106028_ENST00000265304|hu_mus|hu_hu_hu_mus_False|1_8 (ssRNA) RNA: GGGAGUUCUACAGUCCGACGAUCCUCAUGUCUUACAAACUGACGAAAUACCUGUAACACAGGUCUUCGAAACAUGGCUUCUGUUUUUCUUACAACCUAAUCUUUAGGCUUUUCCUAAAGGAAAGAAUAACCCGAGCAGCCCAGCAACAGAGGAUUGAGCAUCA"
  binding signal (enrichment R): 0.751
- binder: "chr8:13019134:13019135:+_ENSMUSG00000031442_ENSMUST00000123811|mus_mus|FALSE|FALSE (ssRNA) RNA: GGGAGUUCUACAGUCCGACGAUCUGGCUGACAGGGGCCUCCUGUUUCCAGAGAUCUCGGAGCACCAUCCCCUCCCAAACUAAGCAAGCCCAAGCAAAAAUAAAAAUUAAAAAUAAAAAAAAACCAAAAAACUUAGAGAUUUGCCAACAGAGGAUUGAGCAUCA"
  binding signal (enrichment R): 21.6
- binder: "chr5:116097646:116097647:+_ENSMUSG00000029518_ENSMUST00000031492|mus_mus|FALSE|FALSE (ssRNA) RNA: GGGAGUUCUACAGUCCGACGAUCUAAAAAGCAUAAUUAGAAACUUUCAAUACAGAAAUAGUCCUAGCAAACCAUUUAAAAGUUGGUUGUUUGACAGGAGUUUCACAUCGGGCCCACCAGGGUACCAGUGUAGCCCUGAUUCUCCAACAGAGGAUUGAGCAUCA"
  binding signal (enrichment R): 0.472
- binder: "chr8:29959424:29959425:+_ENSG00000104660_ENST00000321250|hu_hu|FALSE|FALSE (ssRNA) RNA: GGGAGUUCUACAGUCCGACGAUCGAAGGGCACAUCCAAGCAUCAAAAACAUCAGUCCGAUUGCUCCUCCAAAGGACAAACUAAUCAAAGCUUUGAUGCCUGCCAUGGCGGUGACGUCGCUCCUGGCUCCACGACCCGAGGCGGCAACAGAGGAUUGAGCAUCA"
  binding signal (enrichment R): 1.29
